species: Homo sapiens; assay: In vitro ability to inhibit arachidonic acid induced platelet aggregation (AAIPA); type: functional; conditions: read-out: I50
endpoint name: pIC50
pIC50 (log units): -log10 of the concentration in mol/L.

O=C(O)CCc1ccccc1/C=C1/C2CCC(O2)C1c1nc(C(=O)NCCCCC2CCCCC2)co1 (configuration not stated)	4.90

Could you share which pIC50 value was measured for O=C(O)CCc1ccccc1/C=C1\C2CCC(O2)C1c1nc(C(=O)NCCCCC2CCCCC2)co1 (configuration not stated) ?
8.10

Data provenance: ChEMBL document CHEMBL1151583
